experimental target: human DGKζ (Homo sapiens (Human), UniProt Q13574)
Sequence (Q13574 other isoform, or with tags, fused parts or gaps): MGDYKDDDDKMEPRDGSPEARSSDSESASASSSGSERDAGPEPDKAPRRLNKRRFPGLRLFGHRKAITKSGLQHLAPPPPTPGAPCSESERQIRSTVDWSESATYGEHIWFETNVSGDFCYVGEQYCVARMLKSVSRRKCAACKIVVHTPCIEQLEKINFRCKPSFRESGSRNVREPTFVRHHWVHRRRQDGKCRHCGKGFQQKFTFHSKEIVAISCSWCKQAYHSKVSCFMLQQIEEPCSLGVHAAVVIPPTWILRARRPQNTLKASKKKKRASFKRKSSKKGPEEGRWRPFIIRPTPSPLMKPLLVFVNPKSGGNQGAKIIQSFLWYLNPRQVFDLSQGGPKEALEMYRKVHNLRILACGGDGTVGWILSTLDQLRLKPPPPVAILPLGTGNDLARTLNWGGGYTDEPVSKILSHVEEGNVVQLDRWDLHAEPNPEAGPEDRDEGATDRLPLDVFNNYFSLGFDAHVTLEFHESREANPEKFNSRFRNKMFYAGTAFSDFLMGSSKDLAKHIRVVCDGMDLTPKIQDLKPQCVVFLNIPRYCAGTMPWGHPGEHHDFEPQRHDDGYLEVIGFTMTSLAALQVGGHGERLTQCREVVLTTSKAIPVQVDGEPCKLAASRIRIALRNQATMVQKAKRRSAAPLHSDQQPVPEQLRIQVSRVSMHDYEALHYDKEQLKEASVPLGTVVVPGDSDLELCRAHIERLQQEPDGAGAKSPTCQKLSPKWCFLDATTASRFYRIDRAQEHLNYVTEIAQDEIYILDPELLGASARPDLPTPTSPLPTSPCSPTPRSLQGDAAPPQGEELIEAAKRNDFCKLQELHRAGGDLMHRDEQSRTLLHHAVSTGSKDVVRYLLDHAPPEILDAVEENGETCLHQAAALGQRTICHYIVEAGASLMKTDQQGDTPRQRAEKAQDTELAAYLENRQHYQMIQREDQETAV
assay protocol: Human DGKζ kinase activity inhibition assay (ADP-Glo)
Assay type: biochemical
test parameters: in vitro human DGKζ kinase activity inhibition assay; read-out: IC50
Experimental: Human DGKζ Kinase Activity Inhibition Assay. Human diacylglycerol kinase zeta (DGKζ) inhibitory activity of compounds of the present invention was quantified employing the human DGKζ kinase activity assay as described in the following paragraphs. In essence, the enzyme activity was measured by quantification of the adenosine-di-phosphate (ADP) generated as a co-product of the enzyme reaction via the “ADP-Glo™ Kinase Assay” kit from the company Promega. […]
Under this convention, class 1 denotes IC50 strictly below 400 nM and class 0 denotes IC50 at or above 400 nM.

Here's an entry: CC(C(N)=O)N(c1ccc(Cl)cc1)c1nc(N)c(C(=O)c2ccncc2)s1 (single isomer, unassigned) [Example 57.1] . Is its IC50 below 400 nM?
class 1

Here's an entry: Cc1cc(NC(=O)COc2ccc(C(=O)c3sc(N(c4ccc(F)cc4)C(C)C(N)=O)nc3N)cc2)no1 (racemic) [Example 103] . Is its IC50 below 400 nM?
class 1

Here's an entry: CC(C(N)=O)N(c1ccc(F)cc1)c1nc(N)c(C(=O)c2ccc(OCC(=O)NC3CCCC3)cc2)s1 (racemic) [Example 132] . Is its IC50 below 400 nM?
class 1

Here's an entry: CC(C(N)=O)N(c1ccc(Cl)c(F)c1)c1nc(N)c(C(=O)c2ccc(OC(F)F)cc2)s1 (single isomer, unassigned) [Example 48.2] . Is its IC50 below 400 nM?
class 1

Here's an entry: CCC(C(N)=O)N(c1ccccc1)c1nc(N)c(C(=O)c2ccccc2)s1 (racemic) [Example 67] . Is its IC50 below 400 nM?
class 0

Here's an entry: CC(C(N)=O)N(c1ccc(F)cc1)c1nc(N)c(C(=O)c2ccccc2)s1 (single isomer, unassigned) [Example 61.1] . Is its IC50 below 400 nM?
class 0

Here's an entry: COc1ccc(C(=O)c2sc(N(c3ccc(Cl)c(F)c3)C(C)C(N)=O)nc2N)cc1 (single isomer, unassigned) [Example 59.2] . Is its IC50 below 400 nM?
class 0

Here's an entry: CC(C(N)=O)N(c1ccc(OC(F)(F)F)cc1)c1nc(N)c(C(=O)c2ccc(F)cc2)s1 (single isomer, unassigned) [Example 27.1] . Is its IC50 below 400 nM?
class 0

Here's an entry: CC(C(N)=O)N(c1ccc(Cl)c(F)c1)c1nc(N)c(C(=O)c2ccc(OCc3ccccc3)cc2)s1 (racemic) [Example 166] . Is its IC50 below 400 nM?
class 1

Here's an entry: CC(C(N)=O)N(c1ccc(F)cc1)c1nc(N)c(C(=O)c2ccc(OC(F)F)cc2)s1 (single isomer, unassigned) [Example 44.1] . Is its IC50 below 400 nM?
class 0

Continuing:
Here's an entry: CC(C(N)=O)N(c1ccc(F)cc1)c1nc(N)c(C(=O)c2ccc(N(C)C)nc2)s1 (racemic) [Example 278] . Is its IC50 below 400 nM?
class 1

====

experimental target: human DGKζ (Homo sapiens (Human))
assay protocol: Human DGKζ kinase activity inhibition assay (ADP-Glo)
Format: biochemical
test parameters: in vitro human DGKζ kinase activity inhibition assay; read-out: IC50
pIC50: −log10 of the molar value.
Give Satisfied when the value for pIC50 is at least 6. Give Not satisfied when it is less.

Is the recorded value of pIC50 equal to or greater than 6 for this compound? COc1ccc(C(=O)c2sc(N(c3ccc(Cl)c(F)c3)C(C)C(N)=O)nc2N)cn1 (single isomer, unassigned) [Example 172.2]
Not satisfied

Is the recorded value of pIC50 equal to or greater than 6 for this compound? CC(C(N)=O)N(c1ccc(F)c(F)c1)c1nc(N)c(C(=O)c2ccc(OCc3ccccc3)cc2)s1 (single isomer, unassigned) [Example 165.2]
Satisfied

Is the recorded value of pIC50 equal to or greater than 6 for this compound? CC1CC(C)CN(c2ccc(C(=O)c3sc(N(c4ccc(F)cc4)C(C)C(N)=O)nc3N)cn2)C1 (racemic) [Example 281]
Satisfied

Is the recorded value of pIC50 equal to or greater than 6 for this compound? CC(C(N)=O)N(c1ccc(F)cc1)c1nc(N)c(C(=O)c2ccc(N3CCC(C)(C)CC3)nc2)s1 (racemic) [Example 279]
Satisfied

====

experimental target: human DGKζ (Homo sapiens (Human), UniProt Q13574)
assay protocol: Human DGKζ kinase activity inhibition assay (ADP-Glo)
Assay type: biochemical
test parameters: in vitro human DGKζ kinase activity inhibition assay; read-out: IC50
IC50 for assorted compounds

A selection of reference data follows.
Tell me measured IC50 for CC(C(N)=O)N(c1ccc(F)cc1)c1nc(N)c(C(=O)c2ccc(OCC(=O)N3CCCCCC3)cc2)s1 (racemic) please.
100 nM

Tell me measured IC50 for CC(C(N)=O)N(c1ccc(OC(F)(F)F)nc1)c1nc(N)c(C(=O)c2ccc(OC(F)F)nc2)s1 (racemic) please.
87 nM

Tell me measured IC50 for COc1ccc(C(=O)c2sc(N(c3ccc(Cl)cc3)C(C)C(N)=O)nc2N)cc1 (single isomer, unassigned) [Example 58.2] please.
1050 nM

Tell me measured IC50 for Cc1ccccc1N(c1nc(N)c(C(=O)c2ccccc2)s1)C(C)C(N)=O (racemic) [Example 77] please.
533 nM

Continuing:
Tell me measured IC50 for CC(C(N)=O)N(c1ccc(F)cc1)c1nc(N)c(C(=O)c2ccc(Oc3ccccc3)cc2)s1 (racemic) please.
25 nM

Tell me measured IC50 for CC(Oc1ccc(C(=O)c2sc(N(c3ccccc3)C(C)C(N)=O)nc2N)cc1)C(N)=O (racemic) [Example 45] please.
338 nM

Tell me measured IC50 for CC(C(N)=O)N(c1ccc2c(c1)OC(F)(F)O2)c1nc(N)c(C(=O)c2ccc(OC(F)F)nc2)s1 (racemic) please.
32 nM

Tell me measured IC50 for CC(C(N)=O)N(c1ccc(F)cc1)c1nc(N)c(C(=O)c2ccc(OC(F)(F)F)cc2)s1 (racemic) [Example 40] please.
15.4 nM

Tell me measured IC50 for COc1ccc(C(=O)c2sc(N(c3ccc(Cl)cc3)C(C)C(N)=O)nc2N)cc1 (single isomer, unassigned) [Example 58.1] please.
8 nM

Tell me measured IC50 for CC(C(N)=O)N(c1ccc(F)cc1)c1nc(N)c(C(=O)c2ccc(OCC(=O)NCC(C)(C)C)cc2)s1 (racemic) please.
389 nM

Tell me measured IC50 for COc1ccc(C(=O)c2sc(N(c3ccc(F)c(Cl)c3)C(C)C(N)=O)nc2N)cc1 (single isomer, unassigned) [Example 161.2] please.
2570 nM

Tell me measured IC50 for COc1ccc(C(=O)c2sc(N(c3ccc(F)cc3)C(C)C(N)=O)nc2N)c(F)c1 (racemic) please.
130 nM

Tell me measured IC50 for COc1ccc(C(=O)c2sc(N(c3ccc(C(F)F)cc3)C(C)C(N)=O)nc2N)cc1 (racemic) please.
51 nM

Tell me measured IC50 for CC(C(N)=O)N(c1ccc(F)cc1)c1nc(N)c(C(=O)c2ccc(OC(F)F)cc2)s1 (single isomer, unassigned) [Example 44.2] please.
6.72 nM

====

experimental target: human DGKζ (Homo sapiens (Human), UniProt Q13574)
assay protocol: Human DGKζ kinase activity inhibition assay (ADP-Glo)
Type: biochemical
test parameters: in vitro human DGKζ kinase activity inhibition assay; read-out: IC50
assay metric: IC50 (nM)
The response must be a number in nM with no trailing unit.

Tell me measured IC50 for CC(C(N)=O)N(c1ccc(F)c(F)c1)c1nc(N)c(C(=O)c2ccc(O)cc2)s1 (single isomer, unassigned; enantiomer 2) [Example 288] please.
3440

Tell me measured IC50 for CC(C(N)=O)N(c1ccc(OC(F)F)nc1)c1nc(N)c(C(=O)c2ccccc2)s1 (racemic) [Example 229] please.
193

Let us move to another entry and its IC50.
Tell me measured IC50 for COc1ccc(C(=O)c2sc(N(c3ccc(OC(F)F)c(F)c3)C(C)C(N)=O)nc2N)cc1 (racemic) [Example 205] please.
54

====

experimental target: human DGKζ (Homo sapiens (Human), UniProt Q13574)
assay protocol: Human DGKζ kinase activity inhibition assay (ADP-Glo)
Assay type: biochemical
test parameters: in vitro human DGKζ kinase activity inhibition assay; read-out: IC50
Under this convention, Condition met denotes IC50 strictly below 60 nM and Condition not met denotes IC50 at or above 60 nM.

Some solved entries appear below for comparison.
Here's an entry: CONC(=O)COc1ccc(C(=O)c2sc(N(c3ccc(F)cc3)C(C)C(N)=O)nc2N)cc1 (racemic) [Example 102] . Is its IC50 below 60 nM?
Condition not met

Here's an entry: Cc1cccc(N(c2nc(N)c(C(=O)c3ccccc3)s2)C(C)C(N)=O)c1 (single isomer, unassigned) [Example 76.1] . Is its IC50 below 60 nM?
Condition not met

Here's an entry: COc1ccc(N(c2nc(N)c(C(=O)c3ccc(F)cc3)s2)C(C)C(N)=O)cc1 (racemic) [Example 18] . Is its IC50 below 60 nM?
Condition not met

Here's an entry: C#CCN(C)C(=O)COc1ccc(C(=O)c2sc(N(c3ccc(F)cc3)C(C)C(N)=O)nc2N)cc1 (racemic) [Example 93] . Is its IC50 below 60 nM?
Condition not met

Here's an entry: CC(C(N)=O)N(c1ccc(OC(F)F)c(F)c1)c1nc(N)c(C(=O)c2ccc(Cl)cc2)s1 (racemic) [Example 206] . Is its IC50 below 60 nM?
Condition met

Continuing:
Here's an entry: CC(C(N)=O)N(c1ccc(OC(F)F)c(Cl)c1)c1nc(N)c(C(=O)c2ccc(OC(F)F)cc2)s1 (racemic) [Example 201] . Is its IC50 below 60 nM?
Condition met

Here's an entry: CC(Oc1ccc(C(=O)c2sc(N(c3ccc(F)cc3)C(C)C(N)=O)nc2N)cc1)C(N)=O (racemic) [Example 69] . Is its IC50 below 60 nM?
Condition not met

Taken from patent US11964953B2.
